Source: patent US7071168B2

system: SCLC strain SHP-77; assay: Colorimetric tetrazolium (MTT) assay for cell survival, SCLC strain SHP-77; assay type: cell-based, human; details: SCLC strain SHP-77 in vitro
EXPERIMENTAL_READOUT: MTT: ED50 for killing of SCLC strain SHP-77 in vitro

Examples with answers:
compound="CC1=C(CC(=O)NC2CC(C)(C)NC(C)(C)C2)c2cc(F)ccc2C1=Cc1ccc([S+](C)[O-])cc1 (stereo not drawn) [M654]" result=Inact
compound="CC1(C)CC(NC(=O)[C@@H](N)Cc2ccc3ccccc3c2)CC(C)(C)N1 [M218]" result=Inact
compound="CC1(C)CC(NC(=O)C(NC(=O)C=Cc2ccc(NC(=O)CCCCCCCCCCC(=O)Nc3ccc(C=CC(=O)NC(C(=O)NC4CC(C)(C)NC(C)(C)C4)C4Cc5ccccc5C4)cc3)cc2)C2Cc3ccccc3C2)CC(C)(C)N1 (stereo not drawn) [M294]" result="1.8 µM"
compound="CC1(C)CC(NC(=O)[C@H](CC(=O)O)NC(=O)[C@H](Cc2ccc3ccccc3c2)NC(=O)CCCCCCCCCCC(=O)N[C@@H](Cc2ccc3ccccc3c2)C(=O)N[C@@H](CC(=O)O)C(=O)NC2CC(C)(C)NC(C)(C)C2)CC(C)(C)N1 [M432]" result="70 µM"
compound="CC1(C)CC(NC(=O)C(Cc2ccc3ccccc3c2)NC(=O)CCCCCNC(=O)c2cc(C(=O)NCCCCCC(=O)NC(Cc3ccc4ccccc4c3)C(=O)NC3CC(C)(C)NC(C)(C)C3)cc(C(=O)NCCCCCC(=O)NC(Cc3ccc4ccccc4c3)C(=O)NC3CC(C)(C)NC(C)(C)C3)c2)CC(C)(C)N1 (stereo not drawn) [M290-2]" result="20 µM"

MTT: ED50 for killing of SCLC strain SHP-77 in vitro recorded for this compound, CN(C)c1ccc(C=CC(=O)NC(Cc2ccc3ccccc3c2)C(=O)NC2CC(C)(C)NC(C)(C)C2)cc1 (stereo not drawn) [M324] , is 3 µM
